The values you see were collected from the RNAGym collection of RNA variant scans (doi:10.7554/elife.80360).

B1: Twister Ribozyme (parent)
chain: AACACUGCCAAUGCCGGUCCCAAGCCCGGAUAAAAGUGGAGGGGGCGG

variants of: B1; assay: self-cleavage, relative activity (ratio to wild type); higher = more cleavage; co-transcriptional
Let's look at some variants and their measured self-cleavage.
assay_endpoint: self-cleavage

| mutation_label | result |
| --- | --- |
| A23U G41C | 0.0988 |
| U12G G43A | 0.399 |
| C9A C27A | 0.103 |
| C20G G43C | 0.101 |
| C9U C25A | 0.1 |
| C26A G38C | 0.395 |
| U18G C20U | 0.102 |
